# test-system: T1, human Fibroblast Activation Protein (FAP), soluble antigen (human, UniProt Q12884 26-760, biotinylated when immobilized on streptavidin sensors)
# T1 construct: also called hFAP; biotinylated FAP
# T1 sequence (Q12884 26-760 limits assumed): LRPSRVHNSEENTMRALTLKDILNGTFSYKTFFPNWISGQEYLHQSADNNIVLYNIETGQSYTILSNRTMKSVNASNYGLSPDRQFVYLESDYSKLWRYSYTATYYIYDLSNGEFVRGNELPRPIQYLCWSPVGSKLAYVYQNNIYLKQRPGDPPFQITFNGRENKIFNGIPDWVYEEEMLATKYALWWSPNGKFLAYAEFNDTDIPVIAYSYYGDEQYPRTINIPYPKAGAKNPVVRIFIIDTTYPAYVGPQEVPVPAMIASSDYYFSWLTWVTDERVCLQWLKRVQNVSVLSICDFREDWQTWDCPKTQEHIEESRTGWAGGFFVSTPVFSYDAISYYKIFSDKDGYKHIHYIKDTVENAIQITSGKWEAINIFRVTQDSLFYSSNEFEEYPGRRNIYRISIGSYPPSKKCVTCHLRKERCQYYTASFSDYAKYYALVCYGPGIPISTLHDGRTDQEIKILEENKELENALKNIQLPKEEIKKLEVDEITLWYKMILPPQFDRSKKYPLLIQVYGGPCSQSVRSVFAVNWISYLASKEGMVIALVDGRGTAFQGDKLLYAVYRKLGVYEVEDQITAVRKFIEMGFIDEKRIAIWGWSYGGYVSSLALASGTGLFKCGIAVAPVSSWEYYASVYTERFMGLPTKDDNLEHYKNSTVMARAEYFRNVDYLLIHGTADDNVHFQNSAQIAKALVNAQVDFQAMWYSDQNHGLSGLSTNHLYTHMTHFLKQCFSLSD
# test-summary: BLI; Table 11, antibody variants (Fab/scFv)
pKd: −log10 of the molar value.

- binder: "anti-FAP antibody 872-59 (antibody, V domains shown, also called IgG 59; FAP59) VH: EVQLVESGGGLVQPGGSLRLSCAASGFTFTSYAMSWVRQAPGKGLEWVSSIYSWYGTTSYADSVKGRFTISRDNSKNTLYLQMNSLRAEDTAVYYCARTISYSQYAYGYSFDYWGQGTLVTVSS VL: DIQMTQSPSSLSASVGDRVTITCRASQSISSYLNWYQQKPGKAPKLLIYAASSLQSGVPSRFSGSGSGTDFTLTISSLQPEDFATYYCQQAFTSPRTFGQGTKVEIKR"
  cmp: "="
  pKd: 7.80
- binder: "anti-FAP antibody 872-70 (antibody, V domains shown, also called IgG 70; FAP70) VH: EVQLVESGGGLVQPGGSLRLSCAASGFTFSRYSMSWVRQAPGKGLEWVSYITSTDGTTDYADSVKGRFTISRDNSKNTLYLQMNSLRAEDTAVYYCARSQYGRYYSPDYYFDYWGQGTLVTVSS VL: DIQMTQSPSSLSASVGDRVTITCRASQSISSYLNWYQQKPGKAPKLLIYAASSLQSGVPSRFSGSGSGTDFTLTISSLQPEDFATYYCQQSRTSPYTFGQGTKVEIKR"
  cmp: ">"
  pKd: 9.00
- binder: "anti-FAP antibody 872-5 (antibody, V domains shown, monovalent Fab-Fc (knob-in-hole) for KD per 6.1.3; also called IgG 5; FAP5) VH: EVQLVESGGGLVQPGGSLRLSCAASGFTFRGYIMSWVRQAPGKGLEWVSWISPEGSRTGYADSVKGRFTISRDNSKNTLYLQMNSLRAEDTAVYYCARLQYGTWFDYWGQGTLVTVSS VL: DIQMTQSPSSLSASVGDRVTITCRASQSISSYLNWYQQKPGKAPKLLIYAASSLQSGVPSRFSGSGSGTDFTLTISSLQPEDFATYYCQQATLLLPTFGQGTKVEIKR"
  cmp: "="
  pKd: 8.15
- binder: "anti-IL-2/anti-FAP two-in-one antibody D001 (bispecific antibody, V domains shown, Fab/scFv or monovalent Fab-Fc) VH: EVQLVESGGGLVQPGGSLRLSCAASGFTFSRYSMSWVRQAPGKGLEWVSAISPYGGGTDYADSVKGRFTISRDNSKNTLYLQMNSLRAEDTAVYYCARSQYGRYYSPDYYFDYWGQGTLVTVSS VL: DIQMTQSPSSLSASVGDRVTITCRASQVIGSSLNWYQQKPGKAPKLLIYAASSLQSGVPSRFSGSGSGTDFTLTISSLQPEDFATYYCQQGRSYPYTFGQGTKVEIKR"
  cmp: "="
  pKd: 7.52

Source: patent US20240358849A1
